Let's look at some binders and their measured OD490.
# TEST SYSTEM: T1, M7-2
# T1 construct: also called PD1 mutant M7-2
# ASSAY PROCEDURE: ELISA, 1 ug/ml
Reply with just the number.

| BINDER | OD490 |
| --- | --- |
| PD1-45D6 (antibody, V domains shown, scFv-phage in the screening ELISA; whole IgG in the other assays) VH: QVQLVESGGGVVQPGRSLRLSCAASGFTFSSYAMHWVRQVPGKGLEWVAVISYDGNDKYYADSVKGRFTISRDNSKNTLYLQMNSLRAEDTAVYYCVPTTFEYWGQGSQVTVSS VL: DIVMTQTPLSLPVTPGEAASISCRSSQSLLDSDDGKTYLDWYLQKPGQSPQLLIYTLSYRASGVPDRFSGSGSGTEFNLRISRVEAEDVGIYYCMQRVEFPFTFGQGTKLDIK | 4 |
| PD1-49A2 (antibody, V domains shown, scFv-phage in the screening ELISA; whole IgG in the other assays; also called Parent 49A2) VH: QVQLVESGGGVVQPGRSLRLSCAASGFTFSSYAMHWVRQAPGKGLEWVAVISYDGSNKYYADSVKGRFTISRDNPKNTLYLQMNSLRAEDTAVYYCTTTTFDSWGRGTLVTVSS VL: DIVMTQSPLSLPVTPGEPASISCRSSQSLFDSDDGNTYLDWYLQKPGQSPQLLIYTLSHRASGVPDRFSGSGSGTDFTLKISRVEAEDVGIYYCLQRMGFPYTFGQGTKVEIK | 2.2 |
| PD1-52E8 (antibody, V domains shown, scFv-phage in the screening ELISA; whole IgG in the other assays) VH: QVQLVQSGGNLVQPGRSLRLSCAASGFTFDDYAMHWVRQAPGKGLEWVSGISWNSGTPGYADSVQGRFTISRDNAKNSLYLQMNSLRAEDTAVYYCARGHNYLDSSYYDYWGQGTLVTVSS VL: SYELTQPLSLSVAPGQTARITCSGDALSKEYSYWYQQKPGQAPVLVMYKDSERPSGIPERFSGSSSGTTVTLTISGVQAEDEADYYCQSVDSSDTSVVFGGGTKLTVL | 3.9 |

Moving on to the next binder.
Which value of OD490 has been reported for PD1-41C9 (antibody, V domains shown, scFv-phage in the screening ELISA; whole IgG in the other assays) VH: QMQLVESGGGVVQPGRSLRLSCAASGFTFSSYAMHWVRQAPGKGLEWVAVISYDGSNKYYADSVKGRFTISRDNSKNTLYLQMNRLRSEDTAVYYCTTTTFDSWGQGTLITVSS VL: DIVMTQTPLSLPVTPGEAASISCRSSQSLLDSEDGNTYLDWYLQKPGQSPQLLIYTLSHRASGVPDRFSGSGSGTDFTLKISRVAAEDVGLYYCLQRMGFPYTFGQGTKLDIK in the records?
3

meta.source: patent US20190248900A1
